# credit: patent US11198713B2

molecular target: full-length beta-catenin (Axin site) (Homo sapiens, UniProt P35222); construct: 15 nM full-length beta-catenin, 20 nM FITC labeled peptide in buffer; experiment: Competition fluorescence polarization assay (Axin site probe); format: binding; details: competition fluorescence polarization, Table 2; read-out: in vitro FP EC50
Sequence (P35222 whole entry): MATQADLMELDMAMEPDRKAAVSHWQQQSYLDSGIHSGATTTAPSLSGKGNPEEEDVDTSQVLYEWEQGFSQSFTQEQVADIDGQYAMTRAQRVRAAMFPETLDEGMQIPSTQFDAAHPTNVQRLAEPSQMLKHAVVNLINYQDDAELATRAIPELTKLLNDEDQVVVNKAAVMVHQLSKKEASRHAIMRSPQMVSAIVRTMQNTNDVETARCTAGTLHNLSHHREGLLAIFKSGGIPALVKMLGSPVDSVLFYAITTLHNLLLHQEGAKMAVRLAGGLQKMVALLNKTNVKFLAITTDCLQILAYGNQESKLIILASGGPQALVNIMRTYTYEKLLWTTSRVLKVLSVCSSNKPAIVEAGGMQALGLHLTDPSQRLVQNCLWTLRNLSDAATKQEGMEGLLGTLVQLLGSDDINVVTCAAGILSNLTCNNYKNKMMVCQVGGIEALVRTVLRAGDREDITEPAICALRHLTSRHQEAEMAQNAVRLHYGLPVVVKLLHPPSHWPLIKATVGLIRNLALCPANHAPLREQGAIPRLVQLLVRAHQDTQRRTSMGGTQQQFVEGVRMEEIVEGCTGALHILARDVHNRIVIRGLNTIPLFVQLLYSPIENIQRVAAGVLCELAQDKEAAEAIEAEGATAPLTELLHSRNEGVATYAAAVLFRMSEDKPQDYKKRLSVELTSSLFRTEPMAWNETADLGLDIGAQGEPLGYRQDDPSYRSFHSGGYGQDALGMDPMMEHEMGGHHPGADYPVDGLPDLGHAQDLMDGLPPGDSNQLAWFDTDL

| compound | EC50 |
| --- | --- |
| CC[C@H](C)[C@@H]1NC(=O)[C@H](Cc2c[nH]cn2)NC(=O)[C@H](C)NC(=O)[C@H](CC(=O)O)NC(=O)[C@H](CC(C)C)NC(=O)[C@H]([C@@H](C)CC)NC(=O)[C@](C)(NC(=O)[C@H](C)NC(C)=O)CCCCCCC=CCOC(=O)N2CC[C@@](C(=O)N[C@@H](CCCNC(=NC)NC)C(=O)N[C@H](C(=O)N[C@@H](Cc3c[nH]c4ccccc34)C(N)=O)C(C)C)(C2)NC1=O [FP0640c, Ac-A-R8-I-L-D-A-H-I-MB-SDMA-V-W-NH2] | < 100 nM |
| CC[C@H](C)[C@@H]1NC(=O)[C@@](C)(NC(=O)[C@H](CCC(N)=O)NC(=O)[C@@H]2CCCN2C(C)=O)CCCC=CCN2CC(C(=O)N[C@@H](Cc3c[nH]cn3)C(=O)N[C@H](C(=O)N[C@@H](CCCNC(=N)N)C(=O)N[C@@H](CCCNC(=N)N)C(=O)N[C@H](C(=O)N[C@@H](Cc3c[nH]c4ccccc34)C(=O)N[C@@H](CCCNC(=N)N)C(N)=O)C(C)C)C(C)C)(C2)NC(=O)[C@H](CC(=O)O)NC(=O)[C@H](CC(C)C)NC1=O (single isomer, unassigned) [FP0734a, Ac-P-Q-S5-I-L-D-MA-H-V-R-R-V-W-R-NH2] | > 5000 nM |
| CC[C@H](C)[C@@H]1NC(=O)[C@H](Cc2c[nH]cn2)NC(=O)[C@H](C)NC(=O)[C@H](CC(=O)O)NC(=O)[C@H](CC(C)C)NC(=O)[C@H]([C@@H](C)CC)NC(=O)[C@](C)(NC(=O)[C@H](C)NC(C)=O)CCCCCC=CCN2CC(C(=O)N[C@@H](CCCNC(=N)N)C(=O)N[C@H](C(=O)N[C@@H](Cc3c[nH]c4ccccc34)C(N)=O)C(C)C)(C2)NC1=O (single isomer, unassigned) [FP0516a Isomer 2, Ac-A-R7-I-L-D-A-H-I-MA-R-V-W-NH2] | 500 to 5000 nM |
| CC[C@H](C)[C@@H]1NC(=O)[C@H](Cc2ccccn2)NC(=O)[C@H](C)NC(=O)[C@H](CC(=O)O)NC(=O)[C@H](CC(C)C)NC(=O)[C@H]([C@@H](C)CC)NC(=O)[C@](C)(NC(=O)[C@H](C)NC(C)=O)CCCCCCC=CCOC(=O)N2CC[C@@](C(=O)NC(C)(C)C(=O)N[C@H](C(=O)N[C@@H](Cc3c[nH]c4ccccc34)C(N)=O)C(C)C)(C2)NC1=O (single isomer, unassigned) [FP0570c Isomer 1, Ac-A-R8-I-L-D-A-2pyr-I-MB-Aib-V-W-NH2] | > 5000 nM |
| CC[C@H](C)[C@@H]1NC(=O)[C@H](Cc2c[nH]cn2)NC(=O)[C@H](C)NC(=O)[C@H](CC(=O)O)NC(=O)[C@H](CC(C)C)NC(=O)[C@H]([C@@H](C)CC)NC(=O)[C@](C)(NC(=O)[C@H](C)NC(C)=O)CCCCCCC=CCOC(=O)N2CC[C@@](C(=O)N[C@@H](CCCCNC(=N)N)C(=O)N[C@H](C(=O)N[C@@H](Cc3c[nH]c4ccccc34)C(N)=O)C(C)C)(C2)NC1=O [FP0634c, Ac-A-R8-I-L-D-A-H-I-MB-hArg-V-W-NH2] | < 100 nM |
